tested on: FLT1; conditions: concentration: 1 μM, replicates: in singlicate; n = 1;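 also: KINOMEscan kinase panel screen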
# %Inh per entry

| Smiles String | Assayed Target | %Inh [%] |
| --- | --- | --- |
| FC(F)(F)c1ccc(-c2cc(-c3c[nH]nc3-c3ccccn3)ccn2)cc1 | FLT1 | 20 |
| c1ccc(-c2ccc3c(-c4ccnc(Nc5ccc6c(c5)OCCO6)n4)cnn3n2)cc1 | FLT1 | 31 |
| CS(=O)(=O)CCNCc1nc(-c2ccc3ncnc(Nc4ccc(OCc5cccc(F)c5)c(Cl)c4)c3c2)cs1.Cl | FLT1 | 10 |
| CN1c2ccc(-c3ccc(C(=O)NCCO)cc3)cc2-c2[nH]ncc2S1(=O)=O | FLT1 | 11 |
| COc1ccc(NC(=O)Nc2ccc(C)c(-c3ccc(C(=O)Nc4ccncc4)cc3)c2)cc1 | FLT1 | 26 |
| Fc1cccc(COc2ccc(Nc3ncnc4cc[nH]c34)cc2Cl)c1 | FLT1 | 6 |
| CSc1nn2c(=O)cc(N3CCOCC3)nc2n1Cc1cccc(Cl)c1Cl | FLT1 | 24 |
| Cl.c1ccc(Cn2ccc3cc(Nc4ncnc5ccccc45)ccc32)cc1 | FLT1 | 24 |
| OCCOCCn1ccc2ncnc(Nc3ccc(Oc4cccc(Cl)c4)c(Cl)c3)c21 | FLT1 | 0 |
| Clc1ccc(-c2cc(-c3c[nH]nc3-c3ccccn3)ccn2)cc1 | FLT1 | 20 |
| C[C@@H]1CCN(C(=O)CO)C[C@@H]1N(C)c1ncnc2[nH]ccc12 | FLT1 | 0 |
| CCC(CC)(CC)n1cnc2c(N)ncnc21 | FLT1 | 4 |
| CCc1nc(-c2cccc(N(C)S(=O)(=O)c3ccccc3)c2)c(-c2ccnc(Nc3ccc(N4CCN(C(C)=O)CC4)nc3)n2)s1 | FLT1 | 24 |
| Oc1ccc2ncnc(Nc3ccc(OCc4ccccc4)cc3)c2c1 | FLT1 | 29 |
| Cc1ccc(NC(=O)c2cccc(C#N)c2)cc1-c1ccc(C(=O)Nc2ccncc2)cc1 | FLT1 | 33 |
| Fc1ccc(Nc2nccc(-c3c(-c4ccc(Cl)cc4)nn4ncccc34)n2)cc1F | FLT1 | 8 |
| COc1cc2ncnc(Nc3ccc(OCc4ccccc4Br)c(Cl)c3)c2cc1OC.Cl | FLT1 | 23 |
| Cn1ccc2ncnc(Nc3ccc(Oc4cccc(Cl)c4)c(Cl)c3)c21 | FLT1 | 0 |
